Parameter P.E. binding ELISA OD: see the listing below.
# experimental.target: T1, mouse IL-2Rβ (mouse) (UniProt P16297)
# T1 sequence (looked up): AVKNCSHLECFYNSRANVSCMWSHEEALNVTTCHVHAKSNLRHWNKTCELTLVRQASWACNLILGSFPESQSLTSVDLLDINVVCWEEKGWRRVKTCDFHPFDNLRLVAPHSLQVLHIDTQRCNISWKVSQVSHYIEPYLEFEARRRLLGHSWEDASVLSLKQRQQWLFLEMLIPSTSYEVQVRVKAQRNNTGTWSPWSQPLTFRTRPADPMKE
# experiment.notes: P.E. ELISA, coated protein
measured.property: P.E. binding ELISA OD (OD450 nm)

{"binder": "FJ1427 P035MP02A10 (VHH) VHH: QLQLVESGGGLVQTGTSLRLSCAASGHTSRINAMGWFRQFPGKEREFVAAISRNGGSTVYVDSVKGRFTISRDNAKSTVYLQMNSLKPEDTAVYYCTATDAVGWTTRWMTADFGFWGQGTQVTVSS", "unit.of.measurement": "OD450 nm", "endpoint.result": 0.047}
{"binder": "FJ1427_P035MP03F10 (VHH) VHH: EVQLVESGGGLVQAGGSLRLSCAASGRDFSSYAMGWFRQAPGKEREFVVAITWTKRSTDFPDSVKGRFTISRDNAKNTVYLDMNSLKPEDTAVYYCASARGLPVTPLGDIIYWGEGTLVTVSS", "unit.of.measurement": "OD450 nm", "endpoint.result": 0.048}
{"binder": "FJ1427_P035MP02A01 (VHH) VHH: QVQLVESGGGLVQTGGSLRLSCVVSGSHFISDVMGWYRQVPGKQRELVADMADGGSAKYGDSVKGRFTILRDSVKNTVYLQMSSLNPEDTGVYYCKAGLWITGRHSDYWGQGTQVTVSS", "unit.of.measurement": "OD450 nm", "endpoint.result": 0.048}
{"binder": "FJ1427_P035MP03C03 (VHH) VHH: QVQLVESGGGLVQPGGSLRLSCAISGGTLDSYGIGWVRQAPGKQREGVSCMSRSDDRTYYADSVKGRFTISKDSAKNTVYLQMTSLKPEDTAVYYCAAVDAYGCSLVQPTTYDFWGLGTQVTVSS", "unit.of.measurement": "OD450 nm", "endpoint.result": 0.048}
{"binder": "FJ1427_P035MP02F06 (VHH) VHH: EVQLVESGGGLVQTGGSLRLSCAASGSRFISDFMGWYRQVPGKQRELVADMADGGSARYGDSVKGRFTILRESGNATAYLQMSSLKPEDTGVYYCKAGLWIAGRHFDYWGQGTQVTVSS", "unit.of.measurement": "OD450 nm", "endpoint.result": 0.047}
{"binder": "FJ1427_P035MP02A02 (VHH) VHH: QVQLVESGGGLVQPGGSLRLSCAASGFTFDNYAMTWVRQAPGKGLEWVSSITGAGRGTHYADSVKGRFTISRDNAKNTLYLQVNSLKPEDTAVYYCARYSSSTYYPTTPVRGTDYRGQGTQVTVSS", "unit.of.measurement": "OD450 nm", "endpoint.result": 0.049}
{"binder": "FJ1427_P035MP02F10 (VHH) VHH: EVQLVESGGGLVQAGGSLRLSCVVSGDVFVRYTMAWFRQAPGKEREFVAVVTDSGRTTEYVDSVKGRFTVSRDNAKNTVYLQMNNLKPEDTAVYYCAANTDYFQIRSVDNNAWGQGTQVTVSS", "unit.of.measurement": "OD450 nm", "endpoint.result": 0.051}
{"binder": "FJ1427_P035MP02A08 (VHH) VHH: EVQLVESGGGLVQAGGSLRLSCTVSGDVFVRYTMAWFRQAPGKEREFVATVTDSGRTTEYVDSVKGRFTVSRDNAKNTVYLQMNNLKPEDTAVYYCAANTDYFRIRSLDANTWGQGTQVTVSS", "unit.of.measurement": "OD450 nm", "endpoint.result": 0.069}
{"binder": "FJ1427 P035MP02D11 (VHH) VHH: QVQLQESGGGLVQAGDSLRISCAASGRIFSNYAMGWFRQAPGKETEFVAGITHLTSTTHYADSVKGRFTISRDNAKNTMHLQMNNLKPEDTALYYCAADRNIKITADWSYWGQGTQVTVAS", "unit.of.measurement": "OD450 nm", "endpoint.result": 0.047}
{"binder": "FJ1427 P035MP02B07 (VHH) VHH: EVQLVESGGGLVEAGGSLRLSCAASGRAFNNFPMGWFRQAPGKEREFVAAITWISGSTLYADSVKGRFTISRDKSKNTVYLQMSGLKPEDTALYYCAAALKTITRGQHDYTYWGQGTQVTVSS", "unit.of.measurement": "OD450 nm", "endpoint.result": 0.046}
{"binder": "FJ1427_P035MP02G01 (VHH) VHH: QVQLVESGGGLVQTGGSLRLSCAVSGSRFISDVMGWYRQVPGKQRELVADMADGGSAKYADSVKGRFSILRDSAKNTVYLQMSSLKPEDTGIYYCKAGLWIAGRHSDYWGQGTQVTVSS", "unit.of.measurement": "OD450 nm", "endpoint.result": 0.049}
{"binder": "FJ1427 P035MP02G02 (VHH) VHH: QVQLVESGGGLVQPGGSLRLSCAASGSHFISDVMGWYRQVPGKQRELVADMADGGSVKYGDSVKGRFTILRDSVKNTVTLQMSSLNPEDTGVYYCKAGLWITGRHFDYWGQGIQVTVTS", "unit.of.measurement": "OD450 nm", "endpoint.result": 0.049}
{"binder": "FJ1427 P035MP02D02 (VHH) VHH: QVQLVESGGGLVQVGGSLSVSCAASGRSFDSITMAYFRQAPGNEREFIAGINFSGSRTAYGDSVKGRFTISRDNAKNTVFLQMNSLNPEDTAVYYCAASPRGFYGPGHALYDYWGQGTQVTVSS", "unit.of.measurement": "OD450 nm", "endpoint.result": 0.048}
{"binder": "FJ1427 P035MP02H09 (VHH) VHH: QLQLVESGGGLVQPGGSLRLSCAAAGRAIENYPVGWFRRAPGKEREFVAAITWISGSTLYADSVKGRFTISRDNAKNTVYLQMSSLKPEDTALYYCAAALKTITRGQNDYSYWGQGTQVTVSS", "unit.of.measurement": "OD450 nm", "endpoint.result": 0.049}
{"binder": "FJ1427_P035MP02F05 (VHH) VHH: EVQLVESGGGLVQTGGSLRLSCAVSGSRFISDVMGWYRQVPGKQRELVADMADGGSAKYADSVKGRFSILRDSVKNTVYLQMSSLKPEDTGIYYCKAGLWIAGRHSDYWGQGTQVTVSS", "unit.of.measurement": "OD450 nm", "endpoint.result": 0.048}
